Source listed as patent US20210101899A1.

- Tested system: IDH1 (R132C) (Homo sapiens, UniProt O75874, R132C)
- Sequence (O75874 whole entry R132C): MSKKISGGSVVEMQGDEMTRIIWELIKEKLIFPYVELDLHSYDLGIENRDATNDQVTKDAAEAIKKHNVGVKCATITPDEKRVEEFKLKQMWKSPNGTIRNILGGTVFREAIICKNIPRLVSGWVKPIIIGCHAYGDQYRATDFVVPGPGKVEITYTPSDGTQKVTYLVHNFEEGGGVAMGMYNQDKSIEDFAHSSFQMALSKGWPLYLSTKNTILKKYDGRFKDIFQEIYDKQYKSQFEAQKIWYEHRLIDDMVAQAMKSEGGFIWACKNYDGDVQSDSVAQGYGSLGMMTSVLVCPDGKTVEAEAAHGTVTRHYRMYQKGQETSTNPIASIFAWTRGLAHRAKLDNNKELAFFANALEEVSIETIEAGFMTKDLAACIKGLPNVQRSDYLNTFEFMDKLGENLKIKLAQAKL
- Test name: IDH enzyme assay, NADPH depletion by diaphorase/resazurin coupled detection
- Format: biochemical
- Experimental conditions: pre-incubated with enzyme for 1 h at room temperature; 500 μM a-Ketoglutarate+15 μM NADPH; 10-dose, 3-fold dilution from 10 μM; read-out: Compound IC50 (nM) IDH1 (R132C)
Quantity: IC50

[
  {
    "Compound": "C=CC(=O)N1CCC(NC(=O)c2nn(Cc3ccc(F)cc3)c3c2CN(C(=O)c2ccc[nH]2)CC3C)C1 (stereo not drawn)",
    "Result": "> 10000 nM"
  },
  {
    "Compound": "C=CC(=O)N1CCC(NC(=O)c2nn(Cc3ccc(F)cc3)c3c2CN(C(=O)c2ccc[nH]2)CC3C)CC1 (stereo not drawn)",
    "Result": "> 10000 nM"
  },
  {
    "Compound": "C=CC(=O)N1CCCC(NC(=O)c2nn(Cc3ccc(F)cc3)c3c2CN(C(=O)c2ccc[nH]2)CC3C)C1 (stereo not drawn)",
    "Result": "> 10000 nM"
  }
]
